The measured values listed here are drawn from PubChem BioAssay (Tox21).

experiment description: qHTS assay to identify small molecule antagonists of the TGF-beta/Smad signaling pathway - cell viability counter screen (AID 1346824); also: % is scaled to controls: 0 for no effect and ±100 for the full control effect; nearly all actives have a fitted effect of over 50% in size
experimental conditions: SBE-bla HEK293T viability, CellTiter-Glo luminescence; series mostly up to 76.8 µM
Inconclusive results are not listed. Calls of active or inactive are those of the source. Calls follow the shape of the dose curve; as a rule, active = well fitted cell-killing curve with a large enough effect in the repeat runs; inconclusive = weak or mixed curves; inactive = flat fitted curve, though single readings scatter.

| chemical smiles | outcome |
| --- | --- |
| Nc1ncnc2nc[nH]c12 | inactive |
| O=P(O)(O)O | inactive |
| O=[N+]([O-])c1ccc2c(c1)Cc1ccccc1-2 | inactive |

---

tested target: Nuclear receptor ROR-gamma (Homo sapiens)
experiment description: qHTS assay to identify small molecule antagonists of the retinoid-related orphan receptor gamma (ROR-gamma) signaling pathway (AID 1159521; also: nearly all actives have a fitted effect of over 50% in size)
experimental conditions: Tet-on RORgamma CHO cells, RORE-luciferase, 16 h; series mostly up to 92.4 µM
Results filed as inconclusive are left out. Calls of active or inactive are those of the source. Calls follow the shape of the dose curve; as a rule, active = well fitted inhibition curve with a large enough effect in the repeat runs; inconclusive = weak or mixed curves, or effect the other way; inactive = no such curve, though single readings can be large or run the other way.
Entry note: the call must match one of Y = active, N = inactive

In: // param item: CCCc1c(OCCCCc2nn[nH]n2)ccc(C(C)=O)c1O ; yields the recorded call
Out: N

In: Write down the call the test reported for this compound. Item: CC(C)OC(=O)C(C)(C)Oc1ccc(C(=O)c2ccc(Cl)cc2)cc1
Out: Y

In: Assay result, entry Brc1cc(Oc2cc(Br)c(Br)c(Br)c2Br)c(Br)c(Br)c1Br — outcome?
Out: N

In: Field: outcome | Entry: CC(C)OB(OC(C)C)OC(C)C
Out: N

In: # fetch the recorded call for CC(C)Oc1ccc2c(=O)c(-c3ccccc3)coc2c1 here
Out: N

---

experiment description: qHTS assay to identify small molecule antagonists of the estrogen related receptor (ERR) signaling pathway from Tox21 library - cell viability counter screen (AID 1224834); also: nearly all actives have a fitted effect of over 30% in size
experimental conditions: ERR reporter cells viability, CellTiter-Fluor, 17.5 h; series mostly up to 92.4 µM
Results filed as inconclusive are left out. The source made the active and inactive calls. The call rests on the fitted dose curve; in most records, active means well fitted cell-killing curve with a large enough effect in the repeat runs; inconclusive means weak or mixed curves; inactive means flat fitted curve, though single readings scatter.
Result category, one only: active, inactive

In: Would you mind telling me which call this test gave OC(CCl)CCl ?
Out: inactive

In: Hi, do you know how CCCCNS(=O)(=O)c1ccccc1 came out in this test?
Out: inactive

In: Please indicate how the test categorized C=C(C)C(=O)OCCOC(=O)C(=C)C .
Out: inactive

In: How was O=C(/C=C/c1ccccc1)OCc1ccccc1 classified in this test?
Out: inactive

In: Call for entry COC(=O)c1ccccc1 :
Out: inactive

In: Dear all, I need the recorded test outcome for CN(C)CCN(Cc1cccs1)c1ccccn1 , thank you.
Out: inactive

In: Tell me the assay call for Cc1cccc(N(C)C(=S)Oc2ccc3ccccc3c2)c1 please.
Out: inactive

In: Outcome logged for Brc1cc(Oc2cc(Br)c(Br)c(Br)c2Br)c(Br)c(Br)c1Br in this assay:
Out: inactive

In: Called result for C[C@]12CC[C@H]3[C@@H](CCC4=CC(=O)CC[C@@]43C)[C@@H]1CC[C@@H]2C(=O)CO
Out: inactive

In: What is the recorded call for this molecule in the test? CCC(C)OC(=O)c1ccc(O)cc1 (centres undefined)
Out: inactive

In: How did this test come out for c1cc(N(CC2CO2)CC2CO2)ccc1OCC1CO1 (centres undefined) ?
Out: active

In: Which outcome was assigned to CCCCCCCCCCCO in this test?
Out: inactive

In: Assay result, entry CCC(C)(O)CCCC(C)C (centres undefined) — outcome?
Out: inactive

In: Could you check what this test reported for CC1=CCC(C(C)(C)O)CC1 (centres undefined) ?
Out: inactive

---

tested target: Glucocorticoid receptor (Homo sapiens) (UniProt P04150)
Sequence (P04150 whole entry, looked up): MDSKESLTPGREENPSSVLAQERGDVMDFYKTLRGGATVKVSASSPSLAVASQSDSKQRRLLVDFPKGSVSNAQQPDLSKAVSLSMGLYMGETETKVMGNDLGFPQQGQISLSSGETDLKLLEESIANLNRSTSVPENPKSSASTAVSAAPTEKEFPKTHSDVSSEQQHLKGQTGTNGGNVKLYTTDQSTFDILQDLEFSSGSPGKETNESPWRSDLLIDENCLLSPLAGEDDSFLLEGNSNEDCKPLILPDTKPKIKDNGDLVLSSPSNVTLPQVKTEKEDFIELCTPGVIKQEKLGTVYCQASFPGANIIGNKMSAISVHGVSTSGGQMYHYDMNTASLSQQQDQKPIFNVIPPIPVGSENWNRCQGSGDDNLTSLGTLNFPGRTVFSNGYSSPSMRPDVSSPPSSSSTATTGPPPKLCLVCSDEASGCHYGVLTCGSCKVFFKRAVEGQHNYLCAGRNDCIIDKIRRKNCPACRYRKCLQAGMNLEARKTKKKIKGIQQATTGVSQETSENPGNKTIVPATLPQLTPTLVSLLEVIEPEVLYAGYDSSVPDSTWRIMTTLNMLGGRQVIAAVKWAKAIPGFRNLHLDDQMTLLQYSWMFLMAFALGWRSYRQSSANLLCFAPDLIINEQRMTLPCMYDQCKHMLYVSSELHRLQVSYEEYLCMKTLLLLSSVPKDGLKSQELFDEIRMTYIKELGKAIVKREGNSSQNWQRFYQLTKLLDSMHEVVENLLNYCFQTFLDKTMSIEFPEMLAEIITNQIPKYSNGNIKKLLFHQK
experiment description: qHTS assay to identify small molecule antagonists of the glucocorticoid receptor (GR) signaling pathway (AID 720692)
experimental conditions: GR-bla HeLa, beta-lactamase FRET ratio, dexamethasone-stimulated, 18 h; series mostly up to 58.5 µM
Source text: U.S. Tox21 Program National Center for Advancing Translational Sciences [NCATS] NIH Chemical Genomics Center [NCGC] U.S. Environmental Protection Agency [EPA] National Institutes of Environmental Health Sciences [NIEHS] National Toxicology Program [NTP] U.S. Food and Drug Administration [FDA] […] The activation of the reporter gene under culture conditions can be detected by fluorescence intensity. […]
Records with an inconclusive call do not appear. The source made the active and inactive calls. Calls come from the whole dose curve; as a rule, active = well fitted inhibition curve with a large enough effect in the signal ratio in the repeat runs (not every such curve was filed as active); inconclusive = weak or mixed curves, or effect the other way; inactive = no such curve, though single readings can be large or run the other way; the % refers to the signal ratio.
Returns: one label drawn from t (active), f (inactive)

In: Look up the recorded call for c1ccc2cc(Nc3ccc(Nc4ccc5ccccc5c4)cc3)ccc2c1 in this test.
Out: f

In: Per the records of this test, what outcome belongs to Cc1ncc[nH]1 ?
Out: f

In: Short answer needed: outcome of this test for Cc1c(C(N)=O)cc([N+](=O)[O-])cc1[N+](=O)[O-] ?
Out: f

In: What did the test return for C#C[C@]1(O)CC[C@H]2[C@@H]3CCC4=Cc5oncc5C[C@]4(C)[C@H]3CC[C@@]21C ?
Out: t

In: Give the logged outcome of this assay for the following compound: CC(C)OC=O
Out: f

In: GET /call?item= COc1ccccc1/C=C/C=O returns the recorded outcome of this test.
Out: f

In: Lab log entry: CC(CCC(=O)O)(c1ccc(O)cc1)c1ccc(O)cc1 — outcome as called in the assay?
Out: f

In: Just curious, what result did O=C(OCc1ccccc1)c1ccccc1O get here?
Out: f

In: I would be grateful if you could indicate the recorded call for C=C(C)C(=O)OCCOC(=O)C(=C)C .
Out: f

In: What outcome does the record of this test show for O=Cc1ccccc1O ?
Out: f

In: Record lookup: outcome of this test for COc1c(Cl)c(Cl)c(Cl)c(Cl)c1Cl ?
Out: f

In: Which outcome was entered for the compound C=CC(C)(CCC=C(C)C)OC(C)=O (stereo unspecified) in this test?
Out: f

In: Could you kindly confirm the outcome this assay logged for CCCc1c(OCCCCc2nn[nH]n2)ccc(C(C)=O)c1O ?
Out: t

In: Lab log entry: CCC(C)CO (stereo unspecified) — outcome as called in the assay?
Out: f

In: Give the logged outcome of this assay for the following compound: CCCCC(CC)COCC1CO1 (stereo unspecified)
Out: f

In: Hey, what did the test say about COC(=O)Nc1nc2ccc(S(=O)c3ccccc3)cc2[nH]1 (stereo unspecified) ?
Out: f

In: What did the test return for CNCCCC12CCC(c3ccccc31)c1ccccc12 ?
Out: f

In: Recorded test outcome, item c1ccc2c(c1)Oc1ccccc1S2
Out: f

In: # lookup: test call for CCCCNS(=O)(=O)c1ccccc1
Out: f

In: In this assay, the call recorded for CCC(C)(O)CCCC(C)C (stereo unspecified) was what?
Out: f

In: GET /call?item= OC[C@H]1O[C@@H]2O[C@H]3[C@H](O)[C@@H](O)[C@@H](O[C@H]4[C@H](O)[C@@H](O)[C@@H](O[C@H]5[C@H](O)[C@@H](O)[C@@H](O[C@H]6[C@H](O)[C@@H](O)[C@@H](O[C@H]7[C@H](O)[C@@H](O)[C@@H](O[C@H]8[C@H](O)[C@@H](O)[C@@H](O[C@H]1[C@H](O)[C@H]2O)O[C@@H]8CO)O[C@@H]7CO)O[C@@H]6CO)O[C@@H]5CO)O[C@@H]4CO)O[C@@H]3CO returns the recorded outcome of this test.
Out: f

In: What call does the record list for O=C(c1ccccc1)c1ccc(O)cc1O ?
Out: f

In: I would be grateful if you could indicate the recorded call for O=P(O)(O)O .
Out: f

In: Per the records of this test, what outcome belongs to OC1CCCCCCCCCCC1 ?
Out: f

In: Hi team, can someone confirm the assay call for Cc1cccc(N(C)C(=S)Oc2ccc3ccccc3c2)c1 ?
Out: f

In: Fill in: this test's call for OC(CCl)CCl is ___
Out: f

---

experiment description: qHTS assay to identify small molecule antagonists of the farnesoid-X-receptor (FXR) signaling pathway - cell viability counter screen (AID 743221); also: nearly all actives have a fitted effect of over 50% in size
experimental conditions: FXR-bla HEK293T viability, CellTiter-Glo luminescence, 16 h; series mostly up to 62.6 µM
Inconclusive results are not listed. Activity calls are given as the source filed them. Calls follow the shape of the dose curve; as a rule, active = well fitted cell-killing curve with a large enough effect in the repeat runs (not every such curve was filed as active); inconclusive = weak or mixed curves, or effect the other way; inactive = no such curve, though single readings can be large or run the other way.
Your reply should match one of these outcome classes. label 1 (active), label 0 (inactive)

In: So what was the verdict on CC1=CCC(C(C)(C)O)CC1 (stereo unspecified) in this test?
Out: label 0

In: For COc1ccccc1/C=C/C=O , which call appears in the assay record?
Out: label 0

In: Query: recorded result category for CN(C)CCN(Cc1cccs1)c1ccccn1 in this test
Out: label 0

In: What call does the record list for CCCCNS(=O)(=O)c1ccccc1 ?
Out: label 0

In: Returns: the outcome recorded for CCCCC(CC)COC(=O)c1ccc(N(C)C)cc1 (stereo unspecified) in this assay.
Out: label 0

In: Outcome logged for Nc1ccc(S(=O)(=O)Nc2cnc3ccccc3n2)cc1 in this assay:
Out: label 0

In: What was the test verdict on O=C(c1ccccc1)c1ccc(O)cc1O ?
Out: label 0

In: Hi team, can someone confirm the assay call for CC(=O)CC/C=C(\C)CCC=C(C)C ?
Out: label 0

In: Which result was noted for this compound in the test: Cc1ncc[nH]1
Out: label 0

In: // param item: OC(CCl)CCl ; yields the recorded call
Out: label 0

In: Tell me the assay call for Cc1ccc(C)c(O)c1C please.
Out: label 0

In: For CC(C)CC(C)(O)C#CC(C)(O)CC(C)C (stereo unspecified) , what call appears in the results of this test?
Out: label 0

In: Test call, this compound: O=C(c1ccc(OCCN2CCCCC2)cc1)c1c(-c2ccc(O)cc2)sc2cc(O)ccc12
Out: label 1

In: What classification did C[C@]12CC[C@H]3[C@@H](CCC4=CC(=O)CC[C@@]43C)[C@@H]1CC[C@@H]2C(=O)CO end up with in this test?
Out: label 0

In: I would be grateful if you could indicate the recorded call for Cc1cc2nc3c(=O)[nH]c(=O)nc-3n(C[C@H](O)[C@H](O)[C@H](O)CO)c2cc1C .
Out: label 0

In: Hi, sorry to bother you, what did the test record for C[C@]12CCC(=O)C=C1CC[C@@H]1[C@@H]2C(=O)C[C@@]2(C)[C@H]1CC[C@]2(O)C(=O)CO ?
Out: label 0

In: Recorded test call requested for C=C(C)C(=O)OCCOC(=O)C(=C)C
Out: label 0

In: Returns: the outcome recorded for c1ccc2cc(Nc3ccc(Nc4ccc5ccccc5c4)cc3)ccc2c1 in this assay.
Out: label 0

In: Called result for COc1cc([C@@H]2c3cc4c(cc3[C@H](O)[C@H]3COC(=O)[C@H]23)OCO4)cc(OC)c1OC
Out: label 0

In: For this compound, state the assay outcome: OC1CCCCCCCCCCC1
Out: label 0

In: Recorded call for c1cc(-c2ccncc2)ccn1 ?
Out: label 0

In: Tell me the recorded outcome of this test for C[Si](C)(C)O[Si](C)(C)C .
Out: label 0

In: Assay outcome for C/C=C/C(=O)O : what was it?
Out: label 0

In: Each compound tested received a call. Report the one for Cc1ccc2c(n1)Oc1ccc(C(C)C(=O)OCC(=O)N(C)C)cc1C2 (stereo unspecified) .
Out: label 0

In: Please state the recorded outcome for this compound: O=C1OC2(c3cc(Br)c(O)c(Br)c3Oc3c2cc(Br)c(O)c3Br)c2c(Cl)c(Cl)c(Cl)c(Cl)c21
Out: label 0

In: Please state the recorded outcome for this compound: CN1C(C(=O)Nc2ccccn2)=C(O)c2ccccc2S1(=O)=O
Out: label 0
